EXPERIMENTAL_SYSTEM: ROCK-I (Homo sapiens (Human), UniProt Q13464)
Sequence (Q13464 whole entry): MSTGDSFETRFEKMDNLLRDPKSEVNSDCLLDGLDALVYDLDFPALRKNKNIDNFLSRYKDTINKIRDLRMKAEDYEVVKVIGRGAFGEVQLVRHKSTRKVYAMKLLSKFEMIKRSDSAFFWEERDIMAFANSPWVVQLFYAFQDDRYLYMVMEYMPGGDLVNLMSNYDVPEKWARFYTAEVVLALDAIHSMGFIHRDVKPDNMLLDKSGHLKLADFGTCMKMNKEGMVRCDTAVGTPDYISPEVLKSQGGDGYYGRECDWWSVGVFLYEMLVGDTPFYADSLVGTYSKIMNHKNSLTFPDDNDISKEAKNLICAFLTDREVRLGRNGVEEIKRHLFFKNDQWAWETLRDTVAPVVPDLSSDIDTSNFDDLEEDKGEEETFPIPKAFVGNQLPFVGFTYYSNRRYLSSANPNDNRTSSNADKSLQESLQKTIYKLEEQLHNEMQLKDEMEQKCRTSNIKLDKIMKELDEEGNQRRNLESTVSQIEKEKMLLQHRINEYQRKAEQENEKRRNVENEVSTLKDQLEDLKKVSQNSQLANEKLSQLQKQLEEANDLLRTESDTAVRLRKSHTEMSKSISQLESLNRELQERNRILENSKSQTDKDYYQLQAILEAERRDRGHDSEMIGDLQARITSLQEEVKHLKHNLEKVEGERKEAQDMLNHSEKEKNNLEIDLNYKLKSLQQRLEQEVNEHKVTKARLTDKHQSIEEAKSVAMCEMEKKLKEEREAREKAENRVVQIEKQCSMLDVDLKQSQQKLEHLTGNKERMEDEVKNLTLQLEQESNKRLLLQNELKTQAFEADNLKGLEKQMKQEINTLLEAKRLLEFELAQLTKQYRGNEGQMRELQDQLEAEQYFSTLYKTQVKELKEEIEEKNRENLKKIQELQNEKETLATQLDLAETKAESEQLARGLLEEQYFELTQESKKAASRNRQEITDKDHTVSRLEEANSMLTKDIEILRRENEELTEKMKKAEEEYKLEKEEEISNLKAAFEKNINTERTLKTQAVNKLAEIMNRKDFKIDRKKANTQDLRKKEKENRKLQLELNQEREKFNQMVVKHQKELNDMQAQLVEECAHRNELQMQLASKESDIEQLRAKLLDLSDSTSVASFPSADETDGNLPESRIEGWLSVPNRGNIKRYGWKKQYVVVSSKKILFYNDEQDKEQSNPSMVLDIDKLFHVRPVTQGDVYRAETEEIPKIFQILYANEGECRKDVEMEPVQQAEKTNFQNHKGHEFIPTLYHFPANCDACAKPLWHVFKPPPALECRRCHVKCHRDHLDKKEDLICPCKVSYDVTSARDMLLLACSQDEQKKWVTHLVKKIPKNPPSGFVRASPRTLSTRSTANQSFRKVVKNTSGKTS
PROTOCOL_DETAILS: KinaseProfiler off-target kinase profiling
Format: biochemical
CONDITION_LABEL: 10 μM, ATP near Km
// values below are reported Avg. POC
Number in POC, nothing else.

>  <MOLECULE>
Cc1c(-c2cnn(C)c2)nn(-c2ccccc2)c1NC(=O)N[C@H]1CCCc2ccccc21

>  <Avg. POC, POC>
116.5

$$$$

The measured Avg. POC associated with Cc1c(-c2cnn(C)c2)nn(-c2ccccc2)c1NC(=O)NC1CCOc2cc(F)ccc21 (stereo not shown) reads 116.5

// Avg. POC value for Cc1c(-c2ccc(=O)n(C)c2)nn(-c2ccccc2)c1NC(=O)NC1CN(CC(F)(F)F)Cc2ccccc21 (stereo not shown) : 112

Memo: COCc1ccc2c(c1)C(NC(=O)Nc1c(C)c(-c3cnn(C)c3)nn1-c1ccccc1)COC2 (stereo not shown) , reported Avg. POC: 103
